The reported measurements were obtained from ChEMBL document CHEMBL5380815.

Tested on: SARS-CoV-2
EXPERIMENTAL_PROTOCOL: Antiviral activity against SARS-COV2 infected in African green monkey Vero E6 cells assessed as reduction of viral titer by immunofocus assay
Assay type: functional, organism-based
CONDITION_LABEL: Severe acute respiratory syndrome coronavirus 2, Vero C1008
QUANTITY_KIND: pEC50
The read-out pEC50 is expressed as -log10 of concentration in moles per litre.

[Q] Could you tell me which pEC50 is on file for CCOc1cc2ncc(C#N)c(Nc3ccc(F)c(Cl)c3)c2cc1NC(=O)/C=C/CN(C)C [PELITINIB] ?
[A] 5.90
